Cited source for all entries: patent US20240018145A1

Assignment: determine reported EC50 for the given compounds.
# Tested on: FLU A (PR/8/34)
# assay: Flu A Neuraminidase Antiviral Assay
# Type: cell-based
Record the value in nM, omitting the unit from your answer.

Q: Name the value of EC50 reported for CN1C(=O)c2c(O)c(=O)ccn2N2C1CCCC2(C)c1ccccc1 (single isomer, unassigned) [Compound 18A] when tested on FLU A (PR/8/34).
Ans: 7.1

Q: Tell me EC50 of CN1C(=O)c2c(O)c(=O)ccn2N2C(c3ccc(F)cc3)C(CC(F)(F)F)CCC12 (single isomer, unassigned) [Compound 122A] when tested on FLU A (PR/8/34).
Ans: 343

Q: Provide EC50, system FLU A (PR/8/34), entry CN1C(=O)c2c(O)c(=O)ccn2N2C(c3ccccc3)C(CCC(F)F)CCC12 (single isomer, unassigned) [Compound 124B]
Ans: 1.6

Q: Specify EC50 for Cc1ccccc1C1C(CC(F)(F)F)CC(C)C2N(C)C(=O)c3c(O)c(=O)ccn3N12 (single isomer, unassigned) [Compound 79B] , system FLU A (PR/8/34).
Ans: 2.3

###

# System: FLU A (PR/8/34)
# assay: Flu A Neuraminidase Antiviral Assay
# Assay type: cell-based
reported.property: pEC50
Keep it numeric: pEC50 is minus log10 of the concentration in mol/L.

Q: Entry CCN1C(=O)c2c(O)c(=O)cc(COC)n2N2C(c3ccccc3)C(CC(F)(F)F)CCC12 (stereo not shown) [Compound 131E] needs its pEC50 filled in; supply it.
Ans: 8.17

Q: Indicate the recorded pEC50 value for this molecule: CN1C(=O)c2c(O)c(=O)ccn2N2C(c3cccc(F)c3)C(CC(F)(F)F)CCC12 (single isomer, unassigned) [Compound 121A]
Ans: 6.37

Q: Name the recorded pEC50 of the molecule listed here: CN1C(=O)c2c(O)c(=O)ccn2N2C(c3ccccc3)CCCCC12 (single isomer, unassigned) [Compound 57A]
Ans: 7.02

Q: Look up and report measured pEC50 for this entry: CN1C(=O)c2c(O)c(=O)ccn2N2C1CCC(=O)C2(C)c1ccccc1 (stereo not shown) [Compound 138A]
Ans: 7.71

Q: Respond only with pEC50 recorded for CCN1C(=O)c2c(O)c(=O)ccn2N2C(c3ccccc3)C(CC(F)(F)F)CCC12C (single isomer, unassigned) [Compound 82B]
Ans: 8.64

Q: Provide one value: measured pEC50 of CN1C(=O)c2c(O)c(=O)ccn2N2C1CCC1(CCC(C(F)(F)F)CC1)C2c1ccccc1 (single isomer, unassigned) [Compound 73C]
Ans: 6.98

Q: Name the recorded pEC50 of the item CCCC1CCC2N(C)C(=O)c3c(O)c(=O)ccn3N2C1c1ccccc1C (single isomer, unassigned) [Compound 92A] in your answer.
Ans: 5.34

###

# Test system: FLU A (PR/8/34)
# assay: Flu A Neuraminidase Antiviral Assay
# Assay type: cell-based
Kindly state EC50 for each of the entries shown.
Quick reminder: number only, in nM, skip the unit.

Q: Answer with the recorded EC50 of CN1C(=O)c2c(O)c(=O)ccn2N2C(c3ccccc3)C(C3(C(F)(F)F)CC3)CCC12 (single isomer, unassigned) [Compound 108A] only.
Ans: 5420

Q: Could you please provide reported EC50 for CN1C(=O)c2c(O)c(=O)ccn2N2C1CCCC2(C)c1ccncc1 (single isomer, unassigned) [Compound 31A] ? Thanks!
Ans: 283

Q: Give recorded EC50. CCc1ccccc1C1C(CC(F)(F)F)CCC2N(C)C(=O)c3c(O)c(=O)ccn3N12 (single isomer, unassigned) [Compound 112A]
Ans: 3.7

Q: Look up and state reported EC50 for CN1C(=O)c2c(O)c(=O)ccn2N2C(c3ccccc3)C(CC(F)F)CCC12 (single isomer, unassigned) [Compound 129C]
Ans: 6.6

Q: Indicate its recorded EC50; the molecule in question is CN1C(=O)c2c(O)c(=O)ccn2N2C(c3ccccc3Cl)C(CCO)CCC12 (stereo not shown) [Compound 66B]
Ans: 182

###

# Tested on: FLU A (PR/8/34)
# assay: Flu A Neuraminidase Antiviral Assay
# Format: cell-based
pEC50: −log10 of the molar value.
Assign a class from recorded pEC50; defined classes: lo (below 6), mid (6 to below 8), hi (8 or more)

Q: The entry to classify is CN1C(=O)c2c(O)c(=O)ccn2N2C(c3cc(F)ccc3C(F)(F)F)CCCC12 (single isomer, unassigned) [Compound 13A] ; which class holds it?
Ans: lo

Q: Consider CCN1C(=O)c2c(O)c(=O)ccn2N2C(c3ccccc3C)C(CC(F)(F)F)CCC12 (single isomer, unassigned) [Compound 93A] . To which pEC50 class does it belong?
Ans: mid

Q: Which category does the recorded pEC50 put COc1c2n(ccc1=O)N1C(c3ccccc3)C(SC(C)C)CCC1N(C)C2=O (centres unmarked) [Compound 146A] in?
Ans: mid

Q: Please report the category associated with CN1C(=O)c2c(O)c(=O)ccn2N2C1CCC1(CCCC(F)(F)C1)C2c1ccccc1 (single isomer, unassigned) [Compound 75D] , nothing else.
Ans: mid

Q: GET /class?item= CCCC1CCC2N(C)C(=O)c3c(O)c(=O)ccn3N2C1(C)c1ccccc1 (single isomer, unassigned) [Compound 33A]
Ans: mid

Q: Lab log: Cc1ccccc1C1N2C(CCC13CCC(F)(F)CC3)N(C)C(=O)c1c(O)c(=O)ccn12 (single isomer, unassigned) [Compound 70A] — assign pEC50 category
Ans: mid

Q: State the class of the compound shown: CCCC1CCC2N(C)C(=O)c3c(O)c(=O)ccn3N2C1c1ccccc1Cl (centres unmarked) [Compound 65A]
Ans: mid

Q: Sort CN1C(=O)c2c(O)c(=O)ccn2N2[C@H](c3ccccc3)[C@H](OCC(F)F)CC[C@@H]12 (single isomer, unassigned) [Compound 153A] into one of the categories.
Ans: lo

Q: Which of the defined bands does the recorded pEC50 of CCCC1CCC2N(C)C(=O)c3c(O)c(=O)ccn3N2C1c1ccccc1Cl (centres unmarked) [Compound 65B] sit within?
Ans: hi

Q: Into which bin does this compound go? CC1(c2ccccn2)CCCC2N(CC(F)(F)F)C(=O)c3c(O)c(=O)ccn3N21 (single isomer, unassigned) [Compound 39A]
Ans: lo

Q: # bin label for CCN1C(=O)c2c(O)c(=O)ccn2N2C(c3ccccc3F)C(CCC(F)F)CCC12 (single isomer, unassigned) [Compound 101A]
Ans: mid

Q: Classify this compound: CN1C(=O)c2c(O)c(=O)ccn2N2C(c3ccc(F)cc3)CCCC12 (single isomer, unassigned) [Compound 2B]
Ans: lo

Q: Band for the recorded pEC50 of CN1C(=O)c2c(O)c(=O)ccn2N2C(c3ccccc3)C(CCC3CC3)CCC12 (single isomer, unassigned) [Compound 115C] ?
Ans: hi

Q: Sort into band: CCN1C(=O)c2c(O)c(=O)ccn2N2C(c3ccccc3)C(c3ccc(F)c(F)c3)CCC12 (single isomer, unassigned) [Compound 94A]
Ans: mid

Q: Any idea which band Cc1cccc(F)c1C1C(CC(F)(F)F)CCC2N(C)C(=O)c3c(O)c(=O)ccn3N12 (single isomer, unassigned) [Compound 77B] is in?
Ans: hi

Q: Which pEC50 category applies to O=C1c2c(O)c(=O)ccn2N2C(c3ccccc3)C(CCC(F)(F)F)CCC2N1CC1CC1 (single isomer, unassigned) [Compound 100B] here?
Ans: hi

Q: Band for CN1C(=O)c2c(O)c(=O)ccn2N2C(c3ccccc3C(F)(F)F)CCCC12 (single isomer, unassigned) [Compound 14B] ?
Ans: lo

Q: Given CN1C(=O)c2c(O)c(=O)ccn2N2C1CCCC2(C)c1cccc(OC(F)F)c1 (single isomer, unassigned) [Compound 51A] , name the class its pEC50 places it in.
Ans: lo

Q: Using the reported pEC50, which band applies to CN1C(=O)c2c(O)c(=O)ccn2N2C(c3ccccc3)C(Cc3ccccc3)CCC12 (single isomer, unassigned) [Compound 117A] ?
Ans: lo

Q: Kindly identify the class of CCCC1CCC2N(C)C(=O)c3c(O)c(=O)ccn3N2C1(C)c1ccccc1 (single isomer, unassigned) [Compound 33B] .
Ans: lo

###

# System: FLU A (PR/8/34)
# assay: Flu A Neuraminidase Antiviral Assay
# Format: cell-based
EC50 less than 800 nM is 1; EC50 greater than or equal to 800 nM is 0.

Q: Does this compound meet the criterion EC50 < 800 nM? CCCC1CCC2N(CC)C(=O)c3c(O)c(=O)ccn3N2C1c1ccccc1F (single isomer, unassigned) [Compound 96A]
Ans: 0

Q: Here's an entry: CN1C(=O)c2c(O)c(=O)ccn2N2C(c3ccccc3)C(c3ccc(F)c(F)c3F)CCC12 (single isomer, unassigned) [Compound 85B] . Is its EC50 below 800 nM?
Ans: 1

Q: Input CN1C(=O)c2c(O)c(=O)ccn2N2C(c3cccc4ccccc34)CCCC12 (single isomer, unassigned) [Compound 5B] ; condition: EC50 strictly below 800 nM. Does it hold?
Ans: 0

Q: For CN1C(=O)c2c(O)c(=O)ccn2N2C(c3ccc(F)cc3)C(CC(F)(F)F)CCC12 (single isomer, unassigned) [Compound 122B] , is the recorded EC50 below the cut-off of 800 nM?
Ans: 1

Q: Input CN1C(=O)c2c(O)c(=O)ccn2N2C(c3ccccc3)C3CCC(C3)C12 (single isomer, unassigned) [Compound 9C] ; condition: EC50 strictly below 800 nM. Does it hold?
Ans: 0
